assayProtocol: Accelerated stability study in Buffer A (50/50 DMSO and 10 mM glycine buffer pH 2.0)
Assay type: physicochemical
statedConditions: 20-25 °C, 14.0 days
Quick list: QMP remaining per entry.
Give the quantity in %, number only.

CN(C)c1ccc(N=Nc2ccc(S(=O)(=O)NCCOCCOCCOCCOCCOCCOCCOCCOCCC(=O)NCCCCCCNC(=O)C(F)c3ccccc3OP(=O)(O)O)cc2)cc1 (centres unmarked) [28(C)]    100

## Input Identify measured QMP remaining corresponding to CN1/C(=C/C=C/C=C/C2=[N+](CCCCCC(=O)NCCCCCCNC(=O)C(F)c3ccccc3OP(=O)(O)O)c3ccccc3C2(C)C)C(C)(C)c2ccccc21.[Cl-] (centres unmarked) [28(D)]
## Output 95.1

Just for reference, patent US12215118B2 is where these values come from.
